Organism: Rattus norvegicus
Assay: Open TG-GATES - Regimen: Single
Type: toxicity, organism-based, Sprague-Dawley
Set-up: regimen Single, gender Male, age 6 weeks
Settings: in vivo, po, 0 mg/kg, 6 h, tissue Liver, route gavage, dose level Control
Listed below: LIVER values for each entry.
Answer with a number only, understood to be in g.

[[record]]
compound = "O=C(O)c1cn(C2CC2)c2cc(N3CCNCC3)c(F)cc2c1=O [CIPROFLOXACIN]"
recorded_value = 8.5

[[record]]
compound = "COc1ccc(Cc2nccc3cc(OC)c(OC)cc23)cc1OC [PAPAVERINE]"
recorded_value = 9.4

[[record]]
compound = "Cn1c(=O)c2[nH]cnc2n(C)c1=O.O [THEOPHYLLINE]"
recorded_value = 9.1

[[record]]
compound = "CSc1ccc2c(c1)N(CCC1CCCCN1C)c1ccccc1S2 (stereo unspecified) [THIORIDAZINE]"
recorded_value = 9.5

[[record]]
compound = "NC(=O)N/N=C/c1ccc([N+](=O)[O-])o1 [NITROFURAZONE]"
recorded_value = 7.4

[[record]]
compound = "CC(=O)Oc1ccccc1C(=O)O [ASPIRIN]"
recorded_value = 9


Which LIVER reading was recorded for the compound Clc1ccccc1CN1CCc2sccc2C1 [TICLOPIDINE] ?
9.1

Which LIVER reading was recorded for the compound O=C(O)c1cc(/N=N/c2ccc(S(=O)(=O)Nc3ccccn3)cc2)ccc1O [SULFASALAZINE] ?
9.4

Which LIVER reading was recorded for the compound NC(=O)N1c2ccccc2C=Cc2ccccc21 [CARBAMAZEPINE] ?
9.2

Which LIVER reading was recorded for the compound CN(C)CCC=C1c2ccccc2CCc2ccccc21 [AMITRIPTYLINE] ?
8.2

Which LIVER reading was recorded for the compound CCc1cc(C(N)=S)ccn1 [ETHIONAMIDE] ?
10.5

###

Species: Rattus norvegicus
Assay: Open TG-GATES - Regimen: Daily Repeat
Assay type: toxicity, organism-based, Sprague-Dawley
Design: regimen Daily Repeat, gender Male, age 6 weeks
Settings: in vivo, po, 0 mg/kg, […], tissue Blood, route gavage, dose level Control, time 14 day
measured endpoint: MCV (fL)
Answer with a number only, understood to be in fL.

[[record]]
molecule = "NC(=O)N1c2ccccc2C=Cc2ccccc21 [CARBAMAZEPINE]"
unit_descriptor = "fL"
recorded_value = 59.6

[[record]]
molecule = "CO[C@H]1/C=C/O[C@@]2(C)Oc3c(C)c(O)c4c(O)c(c(/C=N/N5CCN(C)CC5)c(O)c4c3C2=O)NC(=O)/C(C)=C\\C=C\\[C@H](C)[C@H](O)[C@@H](C)[C@@H](O)[C@@H](C)[C@H](OC(C)=O)[C@@H]1C"
unit_descriptor = "fL"
recorded_value = 59.6

[[record]]
molecule = "COc1ccc2c(c1)c(CC(=O)O)c(C)n2C(=O)c1ccc(Cl)cc1"
unit_descriptor = "fL"
recorded_value = 60.3

[[record]]
molecule = "O=C(O)c1cc(/N=N/c2ccc(S(=O)(=O)Nc3ccccn3)cc2)ccc1O"
unit_descriptor = "fL"
recorded_value = 59.2

[[record]]
molecule = "CN(C)CCC=C1c2ccccc2CCc2ccccc21"
unit_descriptor = "fL"
recorded_value = 62.5

[[record]]
molecule = "COc1ccc(Cc2nccc3cc(OC)c(OC)cc23)cc1OC"
unit_descriptor = "fL"
recorded_value = 60.5

[[record]]
molecule = "CCCC(CCC)C(=O)O"
unit_descriptor = "fL"
recorded_value = 58.9

[[record]]
molecule = "O=C(O)c1cn(C2CC2)c2cc(N3CCNCC3)c(F)cc2c1=O"
unit_descriptor = "fL"
recorded_value = 63.3


Now for a further molecule.
Which MCV reading was recorded for the molecule `C[C@H](CS)C(=O)N1CCC[C@H]1C(=O)O` ?
62.1
